assay: gradient 5% acetonitrile 3 min, to 50% in 2 min, to 85% in 15 min, held 3 min, 100 µL/min; settings: column: Zorbax Extend-C18 2.1 x 50 mm; eluents: water / acetonitrile, 0.1% formic acid
Criterion: RP-LC retention time strictly less than 800 s. Met: yes (1). Not met: no (0).

>  <Structure smiles string>
CC(C)(C)NC(=O)CN1c2ccc(F)cc2-c2ccccc2S1(=O)=O

>  <Cat>
no (0)

$$$$

Request: is_below(RP-LC retention time, 800 s) for "CCS(=O)(=O)NCc1ccc2c(c1)CCN2C(=O)c1ccccc1" ?
Response: yes (1)

###

Quick list: RP-LC retention time per entry.
test: gradient 5% acetonitrile 3 min, to 50% in 2 min, to 85% in 15 min, held 3 min, 100 µL/min; conditions: column: Zorbax Extend-C18 2.1 x 50 mm; eluents: water / acetonitrile, 0.1% formic acid
Value expressed in s; do not type the unit.

>  <Structure smiles string>
Cc1cc2nn(CC(=O)NCc3ccco3)c(=O)n2c(Nc2ccc(C)c(F)c2)n1

>  <Readout type>
RP-LC retention time

>  <Value observed>
923

$$$$
>  <Structure smiles string>
O=C1NCCCn2cc(S(=O)(=O)Nc3ccc(OC(F)(F)F)cc3)cc21

>  <Readout type>
RP-LC retention time

>  <Value observed>
739

$$$$

Lab book: RP-LC retention time of "O=C(CN1CCN(C(=O)COc2ccc(Cl)cc2Cl)CC1)c1cccs1" noted as 630

###

assay: gradient 5% acetonitrile 3 min, to 50% in 2 min, to 85% in 15 min, held 3 min, 100 µL/min; conditions: column: Zorbax Extend-C18 2.1 x 50 mm; eluents: water / acetonitrile, 0.1% formic acid
Could you mark each record criterion met if its RP-LC retention time falls strictly under 700 s, and criterion not met if it equals or exceeds it?

Solved cases (5 shown):
>  <Compound>
COc1ccc(NC(=O)c2cn3c(n2)CCCC3)cc1

>  <Cat>
criterion met

$$$$
>  <Compound>
Cc1ccc(-c2ocnc2C(=O)NCCCN2CCc3ccccc3C2)s1

>  <Cat>
criterion not met

$$$$
>  <Compound>
COCC1CN(C)CC12CCN(S(=O)(=O)c1ccc(F)c(C)c1)CC2 (stereo not drawn)

>  <Cat>
criterion met

$$$$
>  <Compound>
Cc1nc2cc(-c3noc(-c4ccsc4)n3)ccc2o1

>  <Cat>
criterion not met

$$$$
>  <Compound>
COc1ccc2[nH]cc(CCN3CC(C(=O)Nc4cccc(C)c4C)CC3=O)c2c1 (stereo not drawn)

>  <Cat>
criterion not met

$$$$

Request: Hi there! Is RP-LC retention time for CN(C)c1cc(OC2CCN(C(=O)c3cccc4[nH]ccc34)C2)ncn1 (stereo not drawn) below 700 s, do you know?
Response: criterion met

Request: is_below(RP-LC retention time, 700 s) for CN1C(=O)C2CCCCN2c2ccc(C(=O)NCCc3cccs3)cc21 (stereo not drawn) ?
Response: criterion not met

Request: hey, is RP-LC retention time for "Cc1ccc(-c2cc3c4nn(CC(=O)N5CCCC5)c(=O)n4ccn3n2)cc1C" lower than 700 s or not?
Response: criterion not met

Request: For this compound, is RP-LC retention time lower than 700 s? "Cc1nnc(-c2cc(NC(=O)c3cccc(Br)c3)c(C)s2)o1"
Response: criterion not met

Request: Does this compound meet the criterion RP-LC retention time < 700 s? "NC(=O)c1cnc(-c2ccccc2)n(CC(=O)Nc2ccccc2Br)c1=O"
Response: criterion not met

Request: I'd appreciate it if you could check whether "O=C(c1cc(-c2ccncc2)n[nH]1)N1CCC(C(=O)N2CCN(C(=O)c3ccco3)CC2)CC1" has RP-LC retention time smaller than 700 s.
Response: criterion met
